B1: Ankyrin-1, residues 1405 to 1484; numbered along this chain, P16157 (parent)
chain: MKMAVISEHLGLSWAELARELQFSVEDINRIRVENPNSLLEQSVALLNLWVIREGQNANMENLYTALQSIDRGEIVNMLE

Variants of: B1
Experiment: abundance fitness (aPCA) (normalised: wild type 0, dead -1); higher = more abundant; growth selection in yeast, the domain comes from the species named
Settings: Homo sapiens
endpoint_label: abundance fitness

residue_codes: MKMAVISEHLGLSWAELARELQFSVEDINRIRVENPNSLLQQSVALLNLWVIREGQNANMENLYTALQSIDRGEIVNMLE
result: -0.1
//
residue_codes: MKMAVISEHLGLSWAELARELQYSVEDINRIRVENPNSLLEQSVALLNLWVIREGQNANMENLYTALQSIDRGEIVNMLE
result: -0.478
//
residue_codes: MKMAVISEHLGLSWAELARELQFSVEDINRIRVENPNSLLEQSVALLNLWVIREGQNANMENLYTALKSIDRGEIVNMLE
result: 0.169
//
residue_codes: MKMAVISEHLGLSWAELARELQFSVEDINRIRVENPNSLLEQSVALLNLWLIREGQNANMENLYTALQSIDRGEIVNMLE
result: 0.053
//
residue_codes: MKMAVISEHLGLSWAELARELQFSVEDINRIRVENPNSLLEQSVALLNLWVIREGQNAFMENLYTALQSIDRGEIVNMLE
result: -0.388
//
residue_codes: MKMAVISEHLGLSWAELARELQFSVEDINRIRVENPNSLLEQSVALLNLWVIREGQNARMENLYTALQSIDRGEIVNMLE
result: 0.034
//
residue_codes: MKMAVISEHLGLSWAELARELQFSVEDINRIRVENPNSLLEQSVALLNLWVIFEGQNANMENLYTALQSIDRGEIVNMLE
result: -0.927
//
residue_codes: MKMAVISEHLGLSWAELARELQFSVEDINRIRVENPNSLLEQSVALLNLWVIREGLNANMENLYTALQSIDRGEIVNMLE
result: -0.19
//
residue_codes: MKMAVISEHLGLSWAELARELQFSVEDINRIRVENPTSLLEQSVALLNLWVIREGQNANMENLYTALQSIDRGEIVNMLE
result: -0.111
//
residue_codes: MKMAVISEHLGLSWAELARELQFSVEDINRRRVENPNSLLEQSVALLNLWVIREGQNANMENLYTALQSIDRGEIVNMLE
result: -0.647
//
residue_codes: MKMAVISEHLGLSWAELARELQFSVEDINRIRVENPNSLLEQSVALLNLWVIRECQNANMENLYTALQSIDRGEIVNMLE
result: -0.389
//
residue_codes: MKMAVISEHLGLSWAELARELQFSVEDINRIRVENQNSLLEQSVALLNLWVIREGQNANMENLYTALQSIDRGEIVNMLE
result: 0.123
//
residue_codes: MKMAVISEHLGLSWAELARELQFSPEDINRIRVENPNSLLEQSVALLNLWVIREGQNANMENLYTALQSIDRGEIVNMLE
result: 0.018
//
residue_codes: MKMAVISEHLGLSWAELARELQFSVEDINRIRVENPNSLLEQSVALLNLWVIREGQNANMENLYTALQSIDRGEGVNMLE
result: -0.509
//
residue_codes: MKMAVISEHLGLSWAELARELQFSVEDINRIRVENPNSLLEQSVALLNPWVIREGQNANMENLYTALQSIDRGEIVNMLE
result: -0.81
//
residue_codes: MKMAVISEHLGLSWAELARELQFSVEDINRIRVENPNSLLEQSVALLNLWVIDEGQNANMENLYTALQSIDRGEIVNMLE
result: -0.613
//
residue_codes: MKMAVISEHLGLSWAELARELQFSVEDINRIRVENPNSLLEQSVALLNLWVIREGQDANMENLYTALQSIDRGEIVNMLE
result: -0.072
//
residue_codes: MKMAVISEHLGLSWAELARELQFSVEDINRIRVENPNSLLEQSVALLNLWVIREGQNANMANLYTALQSIDRGEIVNMLE
result: 0.165
//
residue_codes: MKMAVISEHLGLSWAELARELQFSVEDINRIRVENPNSLLEQSVALLELWVIREGQNANMENLYTALQSIDRGEIVNMLE
result: -0.458
//
residue_codes: MKMAVISEHLGLSWAELARELQFSVEDINRIRVKNPNSLLEQSVALLNLWVIREGQNANMENLYTALQSIDRGEIVNMLE
result: -0.522
//
residue_codes: MKMAVISEHLGLSWAELARELQFSVEDINRIRVENPNSLLEQSVALLNLWVIREGQNANMENLYTALQSIDRGEIVNELE
result: -0.236
//
residue_codes: MKMAVISEHLGLSWAELARELQFSVEDINRIRVENPNSLLEQSVALLNLWVIREGQNANMENLYTALQSIDRGEIVWMLE
result: 0.018
//
residue_codes: MKMAVISEHLGLSWAELARELQFSVEDINRIRIENPNSLLEQSVALLNLWVIREGQNANMENLYTALQSIDRGEIVNMLE
result: -0.018
//
residue_codes: MKMAVISEHLGLSWAELARELQFSVEDINRIRVENPNFLLEQSVALLNLWVIREGQNANMENLYTALQSIDRGEIVNMLE
result: -0.345
//
residue_codes: MKMAVISEHLGLSWAELARELQFSVEDINRIRVENPNSLLEQSVALLNLWVIREGQNANMENLYTALQSTDRGEIVNMLE
result: -0.651
//
residue_codes: MKMAVISEHLGLSWAELARELQFSVEDINRIFVENPNSLLEQSVALLNLWVIREGQNANMENLYTALQSIDRGEIVNMLE
result: 0.069
//
residue_codes: MKMAVISEHLGLSWAELARELQFSVEDINRIRVENPNSLLEQSVALLNLWVIREGQNANMENLYTALQSIDRGEIVNILE
result: 0.041
//
residue_codes: MKMAVISEHLGLSWAELARELQFSVEDINRIRVENPNSLLEQSVALLNLWVIREGQNANMENLYTALQSIDRGEIVCMLE
result: -0.479
//
residue_codes: MKMAVISEHLGLSWAELARELQFSVEDINRIRVENPNSLLEQSVALLNLWVIREGQNANMENLYTALQSIDRIEIVNMLE
result: -0.486
//
residue_codes: MKMAVISEHLGLSWAELARELQFSVEWINRIRVENPNSLLEQSVALLNLWVIREGQNANMENLYTALQSIDRGEIVNMLE
result: -0.89
//
residue_codes: MKMAVISEHLGLSWAELARELQFSVEDINRIRVENPNSLLEQSVALLNLWVIREGQNANMENLYTALQSIDRGEIVNMLI
result: -0.682
//
residue_codes: MKMAVISEHLGLSWAELARELQFSVEDINRIRTENPNSLLEQSVALLNLWVIREGQNANMENLYTALQSIDRGEIVNMLE
result: 0.138
//
residue_codes: MKMAVISEHLGLSWAELARELQFSVEDINRIRVENPNSLLEQSVALLNLWVIREKQNANMENLYTALQSIDRGEIVNMLE
result: -0.666
//
residue_codes: MKMAVISEHLGLSWAELARELQFSVEDINRIRVENPNSLLEQSVALLNLWVIRAGQNANMENLYTALQSIDRGEIVNMLE
result: -0.496
//
residue_codes: MKMAVISEHLGLSWAELARELQFSVEDINRIRVENPNSLLEQSVALLNLWVIREGQNANMENLYLALQSIDRGEIVNMLE
result: -0.072
//
residue_codes: MKMAVISEHLGLSWAELARELQWSVEDINRIRVENPNSLLEQSVALLNLWVIREGQNANMENLYTALQSIDRGEIVNMLE
result: -0.964
//
residue_codes: MKMAVISEHLGLSWAELARELQFSVEDINRIRVENPNSLLEQSVALLNLWVIREGQNANMENLYTALQSIDRGEIVNMYE
result: -0.319
//
residue_codes: MKMAVISEHLGLSWAELARELQFSVEDINRIREENPNSLLEQSVALLNLWVIREGQNANMENLYTALQSIDRGEIVNMLE
result: -0.014

Entry source: the Human Domainome abundance scans (Beltran et al. 2025)
